Provide the recorded X more potent than Pentamidine for the entries that follow.
Tested on: L. donovani promastigotes
assaySummary: Antileishmanial Alamar Blue assay on promastigotes
Assay type: cell-based, Leishmania donovani
experimentalSetup: L. donovani; ratio of molar IC50 to Pentamidine
Method: Methods: The compounds were screened in vitro against the promastigote forms of the leishmania parasites employing the Alamar Blue assay as discussed below. Antileishmanial activity of the compounds was tested in vitro against a culture of L. donovani promastigotes, grown in RPMI 1640 medium supplemented with 10% fetal calf serum (FCS, Gibco Chem. Co., Grand Island, NY) at 26° C. […] Percent growth was calculated and plotted versus test concentration for computing the IC50 values.
Give the figure by itself; no unit, no explanation.

Ask: Look up X more potent than Pentamidine with L. donovani promastigotes for this molecule: "CC(=O)[O-].CC(=O)[O-].[Cu+2].c1ccc(CN2CCCN3CCCN(CCCN(Cc4ccccc4)CC3)CC2)cc1"
Reply: 0.22

Ask: Queued: "Clc1cc(CN2CCCNCCN(Cc3cc(Cl)nc(Cl)c3)CCCNCC2)cc(Cl)n1"
Reply: 0.28

Ask: Try this molecule next: CC(=O)[O-].F[P-](F)(F)(F)(F)F.[Ni+2].c1ccc(CN2CCN3CCN(CC2)CCN(Cc2ccccc2)CC3)cc1 [TC10, [Ni(Bn2Bcyclen)(OAc)]PF6]
Reply: 0.31

Ask: Same lookup for "c1ccc(CN2CCN3CCCN(CC2)CCN(Cc2ccccc2)CC3)cc1" , please.
Reply: 0.10

Ask: Same lookup for CC(=O)[O-].F[P-](F)(F)(F)(F)F.[Ni+2].c1ccc(CN2CCCN3CCCN(CCCN(Cc4ccccc4)CC3)CC2)cc1 [DJD22, [Ni(Bn2PBCyclam)(OAc)]PF6] , please.
Reply: 0.28

Ask: // next record Cl.Cl.Cl.Cl.Cl.Cl.Cl.Cl.c1cc(CN2CCNCCCN3CCN(CC3)CC2)cc(CN2CCNCCCN3CCN(CC3)CC2)c1 [OB46B, m-SB-homocyclens HCl salt]
Reply: 0.13

----------
Kindly supply the reported IC50 values for the records listed here.
Test system: Plasmodium falciparum D6 clone (Sierra Leon, chloroquine-sensitive)
assaySummary: In vitro antimalarial assay, chloroquine-sensitive D6 clone
Type: cell-based
experimentalSetup: D6 clone; converted with molecular weight; read-out: P. falciparum D6 IC50
Kindly answer with a numeric value in µM, unit omitted.

Ask: Which IC50 is listed for CC(=O)[O-].CN1CCCN2CCN(CCCN(Cc3ccccc3)CC2)CC1.F[P-](F)(F)(F)(F)F.[Cu+2] [RM56A, [Cu(Bn1Me1Bcyclam)(OAc)]PF6] ?
Reply: 1.2

Ask: Next entry: "CN1CCN(c2ccnc3cc(Cl)ccc23)CCN(C)CCN(c2ccnc3cc(Cl)ccc23)CC1"
Reply: 0.223

Ask: Now consider "c1ccc(CN2CCCN3CCN(CCCN(Cc4ccccc4)CC3)CC2)cc1" and answer again.
Reply: 2.68

Ask: Same question, CC(=O)[O-].F[P-](F)(F)(F)(F)F.[Cu+2].c1ccc(CN2CCCN3CCN(CCCN(Cc4ccccc4)CC3)CC2)cc1 [RM37, [Cu(Bn2Bcyclam)(OAc)]PF6] this time
Reply: 0.423

Ask: "c1ccc(CN2CCN3CCN(CC2)CCN(Cc2ccccc2)CC3)cc1" , same question.
Reply: 1.35

Ask: Note, next up: CC(=O)[O-].F[P-](F)(F)(F)(F)F.O.[Ni+2].c1ccc(CN2CCCNCCN(Cc3ccccc3)CCCNCC2)cc1 [BME06, [Ni(Bn2Cyclam)(OAc)]PF6•H2O]
Reply: 1.13

Ask: Now the molecule "CC(=O)[O-].F[P-](F)(F)(F)(F)F.[Cu+2].c1ccc(CN2CCN3CCN(CC2)CCN(Cc2ccccc2)CC3)cc1"
Reply: 0.147

Ask: Record: "c1ccc(CN2CCN3CCCN(CC2)CCN(Cc2ccccc2)CC3)cc1"
Reply: 2.74

Ask: Check CC(=O)[O-].F[P-](F)(F)(F)(F)F.[Ni+2].c1ccc(CN2CCCN3CCCN(CCCN(Cc4ccccc4)CC3)CC2)cc1 [DJD22, [Ni(Bn2PBCyclam)(OAc)]PF6] too.
Reply: 1.03

Ask: "Clc1ccc2c(N3CCNCCN(c4ccnc5cc(Cl)ccc45)CCNCC3)ccnc2c1.O.O.[Fe+3].[O-][Cl+3]([O-])([O-])[O-].[O-][Cl+3]([O-])([O-])[O-].[O-][Cl+3]([O-])([O-])[O-]" ?
Reply: 0.0221

Ask: Okay, and "[Cl-].[Cl-].[Fe+2].c1ccc(CN2CCCN3CCN(CCCN(Cc4ccccc4)CC3)CC2)cc1" ?
Reply: 0.324

Ask: Field entry: CC(=O)[O-].F[P-](F)(F)(F)(F)F.[Ni+2].c1ccc(CN2CCCN3CCN(CCCN(Cc4ccccc4)CC3)CC2)cc1 [TC09, [Ni(Bn2Bcyclam)(OAc)]PF6]
Reply: 0.825

Ask: Another: "Clc1ccc2c(N3CCNCCN(c4ccnc5cc(Cl)ccc45)CCNCC3)ccnc2c1.[Cl-].[Cl-].[Mn+2]"
Reply: 0.12
